Hello, the source for this data is patent US8680109B2, in case you need it.

# System: 'Tam-R' cells
# protocol-summary: Test (d) fibronectin cell migration assay
# Assay type: cell-based
# measurement-context: Homo sapiens, 20 h; read-out: IC50 versus 'Tam-R' cells, Test (d) fibronectin cell migration
measured-attribute: IC50

Asked: What is its IC50 for 'Tam-R' cells? Entry: CN1CCN(CCOc2cc(OC3CCOCC3)c3c(Nc4c(Cl)ccc5c4OCO5)ncnc3c2)CC1
Given back: ~100 nM
